# System: TRPC4 beta (transient receptor potential cation channel C4), mouse
# test.name: activators of mouse TRPC4 channel, confirmation, cell-based, Fluo4 calcium, HEK293 TRPC4beta/mu-opioid, duplicates, 10 µM (AID 2426);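 on activation: percent rise of integrated ratio over buffer wells lacking compound which define 0%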
# condition.summary: Fluo4 calcium fluorescence, at 10 µM; hits give high values
Calls of active or inactive are those of the source.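 How the source made its calls: active means fluorescence ratio normalized to control raised more than 50% in primary screen plus both repeat runs; inactive means the rest.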
measured.endpoint: activation

- CCC(=O)C(CCN1CCOCC1)(c1ccccc1)c1ccccc1: 289% (active)
- CCc1ccc(OCCCN=C(C)c2c(O)n(C)c(=O)n(C)c2=O)cc1: inactive
- C[C@H]1OC[C@@H](C[N+](C)(C)C)O1: 152% (active)
- CCC1=Nc2cc(C(=O)N3CCC4(CC3)OCCO4)ccc2Sc2ccc(Br)cc21: inactive
